target: mouse ENT-1 transporter (Mus musculus); assay: Measure of adenosine transport activity (ENT1 adenosine uptake inhibition); conditions: stable cells expressing mouse ENT-1, [2,8-3H]-adenosine 6 nM, 20 min
pIC50: −log10 of the molar value.
OBSERVED_PROPERTY: pIC50

Worked cases, answers included:
>>> data_value("Cc1ncc(-c2ccc3c(c2)N(c2cnc(C)c(C)c2)C(=O)C3(C)C)cn1 [Example 75]")
6.08
>>> data_value("Cc1ncc(-c2ccc3c(c2)N(c2cnccc2C)C(=O)C3(C)C)cn1 [Example 99]")
5.36
>>> data_value("Cc1cncc(N2C(=O)C(C)(C)c3ccc(-c4cncc(F)c4)cc32)n1 [Example 146]")
5.67

a. Cc1cnc(N2C(=O)C(C)(C)c3ccc(-c4cnc(C)nc4)cc32)nc1 [Example 53]
b. Cc1cnc(N2C(=O)C(C)(C)c3ccc(-c4cnc(C)nc4)cc32)cn1 [Example 57]
c. Cc1cc(-c2ccc3c(c2)N(c2cncc(C)n2)C(=O)C3(C)C)ccn1 [Example 144]
d. Cc1ncc(-c2ccc3c(c2)N(c2nc(C)ns2)C(=O)C3(C)C)cn1 [Example 123]
Returns the items ordered by pIC50, from maximum to minimum. # format: label list in the order the request specifies
b, d, a, c

I. Cc1ncc(-c2ccc3c(c2)N(c2cc(C)n(C)n2)C(=O)C3(C)C)cn1 [Example 5]
II. Cc1ccnc(N2C(=O)C(C)(C)c3ccc(-c4cnc(C)nc4)cc32)n1 [Example 64]
# return whichever of I and II has the smaller pIC50 Write the label of whichever entry you select.
II

###

biological target: mouse ENT-1 transporter (Mus musculus, UniProt Q9JIM1); test: Measure of adenosine transport activity (ENT1 adenosine uptake inhibition); settings: stable cells expressing mouse ENT-1, [2,8-3H]-adenosine 6 nM, 20 min
OBSERVED_PROPERTY: IC50 (µM)

Worked cases, answers included:
>>> data_value("Cc1ncc(-c2ccc3c(c2)N(c2cnc(CN)nc2)C(=O)C3(C)C)cn1")
18.4
>>> data_value("Cc1cc(N2C(=O)C(C)(C)c3ccc(-c4cnc(C)nc4)cc32)sn1")
0.226
>>> data_value("CCn1ccc(N2C(=O)C(C)(C)c3ccc(-c4cnc(C)nc4)cc32)n1")
1.16
>>> data_value("Cc1ccc(N2C(=O)C(C)(C)c3ccc(-n4cnc(C(C)C)c4)cc32)cn1")
1.22
>>> data_value("Cc1ncc(-c2ccc3c(c2)N(c2cnccn2)C(=O)C3(C)C)cn1")
2.41
>>> data_value("Cc1cncc(N2C(=O)C(C)(C)c3ccc(-c4cnc(C)nc4)cc32)c1")
0.657

A. Cc1ncc(-c2ccc3c(c2)N(c2cc(C4CC4)cnn2)C(=O)C3(C)C)cn1
B. Cc1ncc(-c2ccc3c(c2)N(c2ncc(C)[nH]2)C(=O)C3(C)C)cn1
C. Cc1ccc(N2C(=O)C(C)(C)c3ccc(-c4cnc(C)nc4)cc32)nn1
Order the entries by their reported IC50, beginning at the minimum. # format: label list in the order the request specifies
C, A, B

###

biological target: mouse ENT-1 transporter (Mus musculus, UniProt Q9JIM1); test: Measure of adenosine transport activity (ENT1 adenosine uptake inhibition); conditions: stable cells expressing mouse ENT-1, [2,8-3H]-adenosine 6 nM, 20 min
OBSERVED_PROPERTY: IC50 (µM)

Worked cases, answers included:
>>> data_value("Cc1cc(N2C(=O)C(C)(C)c3ccc(-c4cnc(C)nc4)cc32)ccn1 [Example 6]")
2.13
>>> data_value("Cc1cc(N2C(=O)C(C)(C)c3ccc(-c4cnc(C)nc4)cc32)cc(Cl)n1 [Example 119]")
0.335

I. Cc1ncc(-c2ccc3c(c2)N(c2ccc(C4CC4)nc2)C(=O)C3(C)C)cn1 [Example 32]
II. Cc1cnc(-c2ccc3c(c2)N(c2cnc(C)nc2)C(=O)C3(C)C)cn1 [Example 133]
# return whichever of I and II has the smaller IC50 Write the label of whichever entry you select.
I

###

target: mouse ENT-1 transporter (Mus musculus, UniProt Q9JIM1); construct: expressed in transfected cells; assay: Measure of adenosine transport activity (ENT1 adenosine uptake inhibition); type: cell-based; conditions: stable cells expressing mouse ENT-1, [2,8-3H]-adenosine 6 nM, 20 min
OBSERVED_PROPERTY: IC50 (µM)

Worked cases, answers included:
>>> data_value("Cc1ncc(-c2ccc3c(c2)N(c2ccc(C#N)nc2)C(=O)C3(C)C)cn1")
2.14
>>> data_value("Cc1cc(N2C(=O)C(C)(C)c3ccc(-c4cnc(C)nc4)cc32)cc(C)n1")
1.14
>>> data_value("Cc1ncc(-c2ccc3c(c2)N(c2cc[nH]n2)C(=O)C3(C)C)cn1")
2.41
>>> data_value("Cc1ncc(-c2ccc3c(c2)N(c2ncc(C)s2)C(=O)C3(C)C)cn1")
0.132

I. Cc1cc(N2C(=O)C(C)(C)c3ccc(-n4cnc(C(C)C)c4)cc32)ccn1
II. Cc1cncc(N2C(=O)C(C)(C)c3ccc(-c4ccnc(C)n4)cc32)n1
API: POST /compare with I and II ; response names the item with higher IC50. Write the label of whichever entry you select.
II

P. Cc1ncc(-c2ccc3c(c2)N(c2cnnc(Cl)c2)C(=O)C3(C)C)cn1
Q. Cc1ncc(-c2ccc3c(c2)N(c2ccncc2F)C(=O)C3(C)C)cn1
# return whichever of P and Q has the smaller IC50 Write the label of whichever entry you select.
P
(P: 2.21 µM, Q: 3.53 µM)

###

target: mouse ENT-1 transporter (Mus musculus, UniProt Q9JIM1); assay: Measure of adenosine transport activity (ENT1 adenosine uptake inhibition); details: stable cells expressing mouse ENT-1, [2,8-3H]-adenosine 6 nM, 20 min
Structures can show the parent of a compound that is named as a salt.
OBSERVED_PROPERTY: IC50 (nM)

Worked cases, answers included:
>>> data_value("Cc1ncc(-c2ccc3c(c2)N(c2cnc(CO)nc2)C(=O)C3(C)C)cn1 [Example 102]")
10200
>>> data_value("Cc1ncc(-c2ccc3c(c2)N(c2ccc(CO)nc2)C(=O)C3(C)C)cn1 [Example 31]")
168
>>> data_value("Cc1ncc(-c2ccc3c(c2)N(c2cncc(F)c2)C(=O)C3(C)C)cn1 [Example 142]")
765

1. Cc1ccc(-c2ccc3c(c2)N(c2ccn(C)n2)C(=O)C3(C)C)cn1 [Example 13]
2. Cc1cc(N2C(=O)C(C)(C)c3ccc(-c4cnc(C)nc4)cc32)[nH]n1 [Example 86, hydrochloride]
API: POST /compare with 1 and 2 ; response names the item with higher IC50. Write the label of whichever entry you select.
1

###

Target: mouse ENT-1 transporter (Mus musculus)
Sequence (Q9JIM1 1-460): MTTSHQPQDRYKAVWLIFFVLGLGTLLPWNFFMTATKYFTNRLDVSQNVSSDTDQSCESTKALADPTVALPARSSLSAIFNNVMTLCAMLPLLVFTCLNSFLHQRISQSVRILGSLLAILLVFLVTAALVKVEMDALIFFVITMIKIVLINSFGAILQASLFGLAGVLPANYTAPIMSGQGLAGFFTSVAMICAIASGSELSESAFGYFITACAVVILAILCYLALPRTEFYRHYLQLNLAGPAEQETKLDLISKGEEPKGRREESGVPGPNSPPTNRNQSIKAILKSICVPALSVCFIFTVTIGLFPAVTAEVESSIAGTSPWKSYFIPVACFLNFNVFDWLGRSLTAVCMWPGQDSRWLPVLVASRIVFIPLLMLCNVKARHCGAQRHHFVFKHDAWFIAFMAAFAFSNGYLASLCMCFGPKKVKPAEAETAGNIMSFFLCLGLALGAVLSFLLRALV
Assay: Measure of adenosine transport activity (ENT1 adenosine uptake inhibition)
Settings: stable cells expressing mouse ENT-1, [2,8-3H]-adenosine 6 nM, 20 min
OBSERVED_PROPERTY: IC50 (nM)

Worked cases, answers included:
>>> data_value("Cc1ncc(-c2ccc3c(c2)N(c2ccn(C)n2)C(=O)C3(C)C)cn1 [Example 4]")
951
>>> data_value("Cc1cc(N2C(=O)C(C)(C)c3ccc(-c4cnc(C)nc4)cc32)ncn1 [Example 7]")
1540
>>> data_value("Cc1ncc(N2C(=O)C(C)(C)c3ccc(-n4cnc(C(C)C)c4)cc32)cn1 [Example 38]")
426

a. Cc1ncc(-c2ccc3c(c2)N(c2ccncc2Cl)C(=O)C3(C)C)cn1 [Example 52]
b. Cc1ccc(N2C(=O)C(C)(C)c3ccc(-c4cnc(C)nc4)cc32)nc1 [Example 56]
API: POST /compare with a and b ; response names the item with higher IC50. Write the label of whichever entry you select.
a

P. CCc1cncc(N2C(=O)C(C)(C)c3ccc(-c4cnc(C)nc4)cc32)c1 [Example 156]
Q. Cc1cc(N2C(=O)C(C)(C)c3ccc(-n4cnc(C5CC5)c4)cc32)ccn1 [Example 21]
R. Cc1cnnc(N2C(=O)C(C)(C)c3ccc(-c4cnc(C)nc4)cc32)c1 [Example 122]
S. Cc1cccc(N2C(=O)C(C)(C)c3ccc(-c4cnc(C)nc4)cc32)n1 [Example 61]
Order the entries by their reported IC50, beginning at the minimum. # format: label list in the order the request specifies
P, R, S, Q
